assay: molar heat capacity at constant pressure; settings: 298.15 K; 101.33 kPa; Crystal; Small sample (50 mg) DSC
Labelling field: enter Met if recorded molar heat capacity at constant pressure is less than 200 J/K/mol. Enter Not met if it equals or exceeds that cut-off.

Input line: Is the reported molar heat capacity at constant pressure for OC[C@@H](O)[C@@H](O)CO strictly below 200 J/K/mol?
Output line: Met

Input line: For this compound, is molar heat capacity at constant pressure lower than 200 J/K/mol? OC[C@@H](O)[C@H](O)[C@@H](O)CO
Output line: Not met

Input line: Bench note: check whether OC[C@H](O)C(O)[C@@H](O)CO [L-(-)-arabitol] shows molar heat capacity at constant pressure below 200 J/K/mol
Output line: Not met

Input line: In plain terms, does OC[C@@H](O)[C@@H](O)[C@H](O)[C@H](O)CO come in under 200 J/K/mol for molar heat capacity at constant pressure?
Output line: Not met

Input line: Is molar heat capacity at constant pressure strictly under 200 J/K/mol for the entry O[C@H]1[C@H](O)[C@@H](O)[C@H](O)[C@@H](O)[C@H]1O [cis-1,2,3,5-trans-4,6-cyclohexanehexol] ?
Output line: Not met

---

settings: 5 K; 101.33 kPa; Crystal; relaxation calorimetry
Mark each entry fulfilled if its molar entropy sits below 0.03 J/K/mol, and not fulfilled for all others.

Input line: Given OC[C@H](O)C(O)[C@@H](O)CO [L-(-)-arabitol] , is recorded molar entropy strictly lower than 0.03 J/K/mol?
Output line: fulfilled

Input line: Regarding O[C@H]1[C@H](O)[C@@H](O)[C@H](O)[C@@H](O)[C@H]1O [cis-1,2,3,5-trans-4,6-cyclohexanehexol] , kindly confirm whether its molar entropy is beneath 0.03 J/K/mol.
Output line: not fulfilled

Input line: Does the reported molar entropy of the following molecule sit strictly below 0.03 J/K/mol? OC[C@@H](O)C(O)[C@H](O)CO [D-arabitol]
Output line: fulfilled

Input line: In plain terms, does OC[C@@H](O)[C@@H](O)CO [meso-1,2,3,4-butanetetrol] come in under 0.03 J/K/mol for molar entropy?
Output line: not fulfilled

Input line: molar entropy strictly < 0.03 J/K/mol for this molecule? OC[C@@H](O)[C@H](O)[C@@H](O)CO [xylitol]
Output line: not fulfilled

Input line: In plain terms, does OC[C@@H](O)[C@@H](O)[C@H](O)[C@H](O)CO [D-mannitol] come in under 0.03 J/K/mol for molar entropy?
Output line: not fulfilled

---

assay: molar heat capacity at constant pressure; conditions: 307.15 K; 101.33 kPa; Crystal; Small sample (50 mg) DSC
For each entry below, report its molar heat capacity at constant pressure value.
Answer format: numeric, J/K/mol implied, no suffix.

Input line: What value of molar heat capacity at constant pressure has been recorded for this entry: OC[C@@H](O)[C@@H](O)CO
Output line: 170.39

Input line: Can you share its molar heat capacity at constant pressure? I mean this compound: O[C@H]1[C@H](O)[C@@H](O)[C@H](O)[C@@H](O)[C@H]1O [cis-1,2,3,5-trans-4,6-cyclohexanehexol]
Output line: 225.41

Input line: I am curious: what molar heat capacity at constant pressure value has been reported for OC[C@H](O)C(O)[C@@H](O)CO [L-(-)-arabitol] ?
Output line: 214.11

Input line: What measured molar heat capacity at constant pressure goes with OC[C@@H](O)[C@@H](O)[C@H](O)[C@H](O)CO ?
Output line: 238.05

Input line: Look at this compound and give its reported molar heat capacity at constant pressure. OC[C@@H](O)C(O)[C@H](O)CO
Output line: 207.99

Input line: Given the compound OC[C@@H](O)[C@H](O)[C@@H](O)CO , what is its reported molar heat capacity at constant pressure?
Output line: 217.06

---

details: 320 K; 101.33 kPa; Crystal; Small sample (50 mg) DSC
Give measured molar entropy for each item. Keep answers brief.
Quick note: give the figure in J/K/mol, leave out the unit.

Input line: What does the data say about its molar entropy? Entry: OC[C@H](O)C(O)[C@@H](O)CO [L-(-)-arabitol]
Output line: 217.18

Input line: What measured molar entropy goes with O[C@H]1[C@H](O)[C@@H](O)[C@H](O)[C@@H](O)[C@H]1O [cis-1,2,3,5-trans-4,6-cyclohexanehexol] ?
Output line: 214.2

Input line: Look up molar entropy for this compound: OC[C@@H](O)[C@H](O)[C@@H](O)CO
Output line: 213.58

Input line: Record request: molar entropy value, item OC[C@@H](O)C(O)[C@H](O)CO
Output line: 214.58

Input line: Quick one: molar entropy for OC[C@@H](O)[C@@H](O)[C@H](O)[C@H](O)CO ?
Output line: 243.99

Input line: What does the record list as molar entropy for OC[C@@H](O)[C@@H](O)CO ?
Output line: 177.57

---

settings: 6 K; 101.33 kPa; Crystal; relaxation calorimetry
Classification field: Met = molar entropy at or over 0.06 J/K/mol; Not met = molar entropy under 0.06 J/K/mol.

Input line: Entry OC[C@H](O)C(O)[C@@H](O)CO [L-(-)-arabitol] : is its molar entropy no less than 0.06 J/K/mol?
Output line: Not met

Input line: Does the reported molar entropy for OC[C@@H](O)[C@@H](O)[C@H](O)[C@H](O)CO fall at or above the 0.06 J/K/mol mark?
Output line: Met

Input line: Threshold query (molar entropy >= 0.06 J/K/mol) on OC[C@@H](O)C(O)[C@H](O)CO
Output line: Not met

Input line: Determine whether measured molar entropy meets or exceeds 0.06 J/K/mol for O[C@H]1[C@H](O)[C@@H](O)[C@H](O)[C@@H](O)[C@H]1O [cis-1,2,3,5-trans-4,6-cyclohexanehexol]
Output line: Met

Input line: Test whether the compound OC[C@@H](O)[C@@H](O)CO records molar entropy of 0.06 J/K/mol or higher.
Output line: Not met

---

test: molar heat capacity at constant pressure; conditions: 315.15 K; 101.33 kPa; Crystal; Small sample (50 mg) DSC
Answer no if molar heat capacity at constant pressure is under 200 J/K/mol, and yes if it is 200 J/K/mol or more.

Input line: Determine whether this compound has molar heat capacity at constant pressure no lower than 200 J/K/mol: OC[C@@H](O)[C@@H](O)CO
Output line: no

Input line: Would you say OC[C@@H](O)[C@H](O)[C@@H](O)CO shows molar heat capacity at constant pressure at minimum 200 J/K/mol?
Output line: yes

Input line: Hello, I need to know if OC[C@H](O)C(O)[C@@H](O)CO [L-(-)-arabitol] has measured molar heat capacity at constant pressure not below 200 J/K/mol. Thanks!
Output line: yes

Input line: Has OC[C@@H](O)[C@@H](O)[C@H](O)[C@H](O)CO a recorded molar heat capacity at constant pressure greater than or equal to 200 J/K/mol?
Output line: yes

Input line: Please check the record OC[C@@H](O)C(O)[C@H](O)CO and state if its molar heat capacity at constant pressure is at or above 200 J/K/mol.
Output line: yes

Input line: Please tell me: is the compound O[C@H]1[C@H](O)[C@@H](O)[C@H](O)[C@@H](O)[C@H]1O [cis-1,2,3,5-trans-4,6-cyclohexanehexol] at or over 200 J/K/mol in terms of molar heat capacity at constant pressure?
Output line: yes

---

assay: molar heat capacity at constant pressure; conditions: 190.15 K; 101.33 kPa; Crystal; Small sample (50 mg) DSC
For each record, write down the corresponding molar heat capacity at constant pressure.
Reply numerically in J/K/mol, unit not repeated.

Input line: Item under review: OC[C@@H](O)[C@H](O)[C@@H](O)CO [xylitol] . Reported molar heat capacity at constant pressure?
Output line: 131.3

Input line: Form field: reported molar heat capacity at constant pressure of OC[C@H](O)C(O)[C@@H](O)CO [L-(-)-arabitol]
Output line: 131.98

Input line: Given the compound O[C@H]1[C@H](O)[C@@H](O)[C@H](O)[C@@H](O)[C@H]1O [cis-1,2,3,5-trans-4,6-cyclohexanehexol] , what is its reported molar heat capacity at constant pressure?
Output line: 134.04

Input line: Which measured molar heat capacity at constant pressure value corresponds to OC[C@@H](O)[C@@H](O)[C@H](O)[C@H](O)CO [D-mannitol] ?
Output line: 145.73

Input line: // molar heat capacity at constant pressure lookup, key: OC[C@@H](O)[C@@H](O)CO [meso-1,2,3,4-butanetetrol]
Output line: 106.41

Input line: For the compound OC[C@@H](O)C(O)[C@H](O)CO [D-arabitol] , what molar heat capacity at constant pressure is on record?
Output line: 124.65

---

Record form. Attribute: molar entropy. Fill in for each entry.
settings: 210 K; 101.33 kPa; Crystal; relaxation calorimetry
The answer is to be given in J/K/mol; state only the numeric part.

Input line: Query: molar entropy; subject: OC[C@@H](O)C(O)[C@H](O)CO
Output line: 139.49

Input line: Quick one: molar entropy of O[C@H]1[C@H](O)[C@@H](O)[C@H](O)[C@@H](O)[C@H]1O [cis-1,2,3,5-trans-4,6-cyclohexanehexol] ?
Output line: 133.91

Input line: # lookup: molar entropy of OC[C@H](O)C(O)[C@@H](O)CO [L-(-)-arabitol]
Output line: 140.66

Input line: Please look up its molar entropy: OC[C@@H](O)[C@H](O)[C@@H](O)CO
Output line: 136.64

Input line: # input compound: OC[C@@H](O)[C@@H](O)CO ; wanted: its molar entropy
Output line: 115.97

Input line: Would you mind telling me what molar entropy value was observed for OC[C@@H](O)[C@@H](O)[C@H](O)[C@H](O)CO ?
Output line: 158.13
